- target system: Retinoic acid receptor RXR-alpha (Homo sapiens)
- method summary: ATG_RXRa_TRANS: Attagene TRANS-FACTORIAL HepG2 Assay for human Retinoid X Receptor alpha (RXRa) (AID 2283012)
Results filed as inconclusive are left out. The source made the active and inactive calls. How the source made its calls: active means hit-call score of the fitted dose curve at least 0.9, where 1 is the maximum; inconclusive means response in the unintended direction; inactive means score below 0.9.
Your response should consist of one outcome taken from 1 (yes) = active, 0 (no) = inactive

- Cc1cnc(NC(=O)C2=C(O)c3ccccc3S(=O)(=O)N2C)s1: 0 (no)

# input Give the logged outcome of this assay for the following compound: CC(=O)c1ccc[nH]1
# output 0 (no)

# input What call does the record list for Cc1cccc(OCCOc2cccc(C)c2)c1 ?
# output 0 (no)

# input Hi, sorry to bother you, what did the test record for O=C1c2ccccc2C(=O)C1c1nc2ccccc2c(Br)c1O ?
# output 0 (no)

# input Tell me the assay call for CN(C)c1ccc(N=Nc2ccccc2C(=O)O)cc1 please.
# output 0 (no)

###

- target system: Retinoic acid receptor RXR-alpha (Homo sapiens) (UniProt P19793)
- Sequence (P19793 whole entry, looked up): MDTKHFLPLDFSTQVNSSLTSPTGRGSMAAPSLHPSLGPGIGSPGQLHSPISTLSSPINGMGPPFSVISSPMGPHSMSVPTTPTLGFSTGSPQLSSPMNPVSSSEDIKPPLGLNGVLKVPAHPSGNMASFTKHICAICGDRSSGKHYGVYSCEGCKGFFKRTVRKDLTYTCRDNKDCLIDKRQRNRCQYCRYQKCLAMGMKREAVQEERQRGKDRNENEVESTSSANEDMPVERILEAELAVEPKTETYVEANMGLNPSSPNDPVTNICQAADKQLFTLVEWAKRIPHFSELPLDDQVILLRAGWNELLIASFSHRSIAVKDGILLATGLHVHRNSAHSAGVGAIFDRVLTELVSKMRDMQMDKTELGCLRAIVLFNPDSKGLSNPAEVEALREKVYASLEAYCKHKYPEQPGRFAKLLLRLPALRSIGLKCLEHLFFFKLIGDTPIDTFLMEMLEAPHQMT
- method summary: ATG_RXRa_TRANS: Attagene TRANS-FACTORIAL HepG2 Assay for human Retinoid X Receptor alpha (RXRa) (AID 2283012)
Records with an inconclusive call do not appear. Active and inactive are the calls of the source. Rule for the calls: active = hit-call score of the fitted dose curve at least 0.9, where 1 is the maximum; inconclusive = response in the unintended direction; inactive = score below 0.9.
Returns: one label drawn from class 1 = active, class 0 = inactive

Known results for molecules:
- CC1=CC[C@H]2C[C@@H]1C2(C)C: class 0
- CC=CC(F)(F)C(F)(F)C(F)(F)F: class 0
- CCN(CCC#N)c1ccc(N=Nc2c(Cl)cc([N+](=O)[O-])cc2Cl)cc1: class 0
- O=CN1CCCCC1: class 0
- C=C[C@](C)(O)CC[C@@H]1[C@@]2(C)CCCC(C)(C)[C@@H]2CC[C@@]1(C)O: class 0

# input Per the records of this test, what outcome belongs to C=CC(=O)OCC(Br)CBr (configuration not stated) ?
# output class 0

# input What did this assay record as the result for CC1(C)[C@H]2CC[C@]1(C)C(=O)C2 ?
# output class 0

# input Entry OCCNCc1ccccc1 : call = ?
# output class 0

# input Field: outcome | Entry: C(=CC=Nc1ccccc1)C=CNc1ccccc1
# output class 0

# input Tell me the recorded outcome of this test for O=c1c2ccccc2oc2ccccc12 .
# output class 0

# input # fetch the recorded call for O=C1CCCCCN1SSN1CCCCCC1=O here
# output class 0

# input Look up the recorded call for CC(C)(C)c1ccc(-c2ccc(C(C)(C)C)cc2)cc1 in this test.
# output class 0

# input What did the test return for CC(=O)Nc1nnc(S(N)(=O)=O)s1 ?
# output class 0

# input Per the assay record, what outcome was assigned to C=CC(C)(CCC=C(C)C)OC(=O)CC(C)C (configuration not stated) ?
# output class 0

# input In this assay, the call recorded for CCCCCCCCCCC=CC#N was what?
# output class 0

# input Hi, do you know how C=CCOc1c(Br)cc(Br)cc1Br came out in this test?
# output class 1

# input Which outcome was assigned to CNC(=S)NN in this test?
# output class 0
